- Tested on: NCI/ADR-RES ovarian
- experimental details: NCI tumour cell line growth inhibition, 48 h
measurement type: TGI

// below: answered compounds
> print(dat)
                                   compound  measurement.type  reported.value
1  c1ccc2c(c1)SC1Sc3ccccc3[S+]21 (stereo not given)               TGI           51 µM
2  CC1(C)CCOC(=O)C(Cl)CC1Cl (stereo not given)               TGI        > 100 µM
3  COC1C(=O)CCC2(CO2)C1(O)C1(C)OC1CCC(C)C (stereo not given)               TGI        > 100 µM
4  NNC(=O)c1ccccc1NC(=O)/C(=C/c1ccccc1)NC(=O)c1ccccc1               TGI        > 100 µM
5  CN(C)CCOc1ccc(-c2c(Oc3ccc(Cl)cc3)c(=O)oc3ccccc23)cc1               TGI       > 52.1 µM

Look up TGI with NCI/ADR-RES ovarian for this compound: Clc1ccc(OCc2nnc(CCCCCCCCc3nnc(COc4ccc(Cl)cc4Cl)o3)o2)c(Cl)c1
> 100 µM

Write down the reported TGI of CCCCCC(C)C[C@H]1CO[C@H](c2ccc[nH]2)N[C@H]1C(=O)OC (stereo not given in full) , test system: NCI/ADR-RES ovarian.
> 100 µM

Checklist item: TGI tested on NCI/ADR-RES ovarian, entry C=C1C(=O)O[C@H]2[C@H]1CC/C(COC(=O)c1ccc(C(=O)O)s1)=C\CC[C@@]1(C)O[C@@H]21 , value?
26.2 µM

Lab request: please report TGI under test system NCI/ADR-RES ovarian for O=C1CSC2(CCN(CCCN3c4ccccc4Sc4ccc(Cl)cc43)CC2)N1
20.2 µM

NCI/ADR-RES ovarian / TGI / COc1ccc2nc3c([N+](=O)[O-])ccc4c3c(c2c1)NCCN4C : value?
7.73 µM

###

Target or system DU-145 prostate: recorded GI50 listed per item.

The examples below pair each entry with its known result.
> print(dat)
                                   compound  reported.value
1  C=C1C(O)C2C(=C(CC(C)C)C13CC3)C(=O)C(C)(C)C2OC (stereo not given)        > 100 µM
2  N#CC1C(N)=NNC1c1ccc(-c2ccc(-c3nc4ccccc4o3)cc2)o1 (stereo not given)         15.3 µM
3  O=c1c(OC/C(=N/O)c2ccccc2)c(-c2ccccc2)oc2ccccc12         17.1 µM
4  C=C1C(=O)O[C@H]2[C@H]1CC/C(COC(=O)c1ccc(C(=O)O)s1)=C\CC[C@@]1(C)O[C@@H]21         1.59 µM

Now take the following compound into account.
Could you share which GI50 value was measured for O=C1NC(=O)C(c2ccccc2Cl)=C1Nc1cccc(O)c1 ?
9.29 µM

###

Reported TGI values for the following compounds.
- Tested on: NCI/ADR-RES ovarian
- experimental details: NCI tumour cell line growth inhibition, 48 h
I only need the number, in µM, no unit after it.

compound	uom	reported value
COC1CCC(OC2CC(C3(C)CCC4(CC(O)C(C)C(C(C)/C=C(\C)C(=O)C(C)CC(C)C(=O)O)O4)O3)OC3(OC(C4OC(O)(CO)C(C)CC4C)CC3C)C2C)OC1C (stereo not given)	µM	6.65

Look up TGI for this compound: CC1=CC[C@@H]2C(C)(C)[C@@H](O)CC[C@@]2(C)[C@@H]1COc1ccc2ccc(=O)oc2c1
12.7
